I'd appreciate it if you could supply pIC50 values for the items below.
tested on: HBV; test: microbe, parasite or virus in culture; conditions: Hepatitis B virus, HepG2 2.2.15, 288 h, read-out: IC50 against Anti-HBV
pIC50: −log10 of the molar value.

With HBV as the test system, Cc1cn([C@H]2C[C@H](N=[N+]=[N-])[C@@H](CO)O2)c(=O)[nH]c1=O [AZT, 3′-azido-3′-deoxythymidine] showed pIC50 of < 4.00

With HBV as the test system, Cc1cn([C@H]2C=C[C@@H](CO)O2)c(=O)[nH]c1=O [d4T, 2′,3′-didehydro-3′-deoxythymidine] showed pIC50 of < 4.00

With HBV as the test system, C#C[C@@]1(CO)C=C[C@H](n2cc(C)c(=O)[nH]c2=O)O1 [Ed4T] showed pIC50 of < 4.00

* * *

experiment: Cytotoxicity in MT-4 cells; assay type: cell-based; conditions: human
Assay Readout: CC50

GET /value?item= Nc1nc(NC2CC2)c2ncn([C@H]3C=C[C@@H](CO)C3)c2n1 &field=CC50 returns > 100 µM

GET /value?item= OC[C@@H]1CC[C@H](n2cnc3c(O)ncnc32)O1 &field=CC50 returns > 100 µM

GET /value?item= C#C[C@@]1(CO)C=C[C@H](n2cc(C)c(=O)[nH]c2=O)O1 &field=CC50 returns > 100 µM

GET /value?item= Cc1cn([C@H]2C=C[C@@H](CO)O2)c(=O)[nH]c1=O [d4T, 2′,3′-didehydro-3′-deoxythymidine] &field=CC50 returns > 100 µM

GET /value?item= Nc1nc(=O)n([C@@H]2CS[C@H](CO)O2)cc1F &field=CC50 returns > 100 µM

GET /value?item= Nc1ccn([C@@H]2CS[C@H](CO)O2)c(=O)n1 &field=CC50 returns > 100 µM

GET /value?item= Cc1cn([C@@H]2C[C@@H](O)[C@H](CO)O2)c(=O)[nH]c1=O &field=CC50 returns > 100 µM
